# TARGET_OR_TEST_SYSTEM: PI3Kδ (p110δ/p85α) (Homo sapiens (Human), UniProt O00329)
# Sequence (O00329 whole entry): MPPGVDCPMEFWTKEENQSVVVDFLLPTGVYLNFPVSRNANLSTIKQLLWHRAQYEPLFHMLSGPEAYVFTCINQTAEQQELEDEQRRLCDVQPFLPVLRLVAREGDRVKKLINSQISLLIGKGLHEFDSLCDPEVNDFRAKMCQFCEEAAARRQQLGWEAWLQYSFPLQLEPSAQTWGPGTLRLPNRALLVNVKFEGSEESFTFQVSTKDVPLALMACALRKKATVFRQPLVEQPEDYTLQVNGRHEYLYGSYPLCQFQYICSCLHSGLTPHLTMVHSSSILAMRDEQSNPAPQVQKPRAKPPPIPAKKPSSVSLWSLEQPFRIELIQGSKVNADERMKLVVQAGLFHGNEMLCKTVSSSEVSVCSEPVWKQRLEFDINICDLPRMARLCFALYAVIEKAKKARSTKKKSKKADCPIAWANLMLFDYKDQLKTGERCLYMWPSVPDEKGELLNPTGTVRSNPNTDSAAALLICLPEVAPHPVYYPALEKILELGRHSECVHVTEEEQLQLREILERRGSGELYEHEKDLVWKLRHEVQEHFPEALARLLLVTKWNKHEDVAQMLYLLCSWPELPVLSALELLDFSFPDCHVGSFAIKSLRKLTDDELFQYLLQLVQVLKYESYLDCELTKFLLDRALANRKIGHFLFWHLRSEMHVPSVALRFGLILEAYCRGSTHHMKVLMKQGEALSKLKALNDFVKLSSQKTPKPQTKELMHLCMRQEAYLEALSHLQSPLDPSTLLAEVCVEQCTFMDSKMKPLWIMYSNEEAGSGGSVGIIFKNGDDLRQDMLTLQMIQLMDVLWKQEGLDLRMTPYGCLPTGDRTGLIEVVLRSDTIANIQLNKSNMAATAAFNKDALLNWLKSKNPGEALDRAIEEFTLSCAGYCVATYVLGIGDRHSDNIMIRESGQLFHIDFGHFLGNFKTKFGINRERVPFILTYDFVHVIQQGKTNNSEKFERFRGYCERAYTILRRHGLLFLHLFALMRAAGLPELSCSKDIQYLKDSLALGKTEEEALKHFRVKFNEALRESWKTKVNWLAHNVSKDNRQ
# Sequence (P27986 whole entry partner): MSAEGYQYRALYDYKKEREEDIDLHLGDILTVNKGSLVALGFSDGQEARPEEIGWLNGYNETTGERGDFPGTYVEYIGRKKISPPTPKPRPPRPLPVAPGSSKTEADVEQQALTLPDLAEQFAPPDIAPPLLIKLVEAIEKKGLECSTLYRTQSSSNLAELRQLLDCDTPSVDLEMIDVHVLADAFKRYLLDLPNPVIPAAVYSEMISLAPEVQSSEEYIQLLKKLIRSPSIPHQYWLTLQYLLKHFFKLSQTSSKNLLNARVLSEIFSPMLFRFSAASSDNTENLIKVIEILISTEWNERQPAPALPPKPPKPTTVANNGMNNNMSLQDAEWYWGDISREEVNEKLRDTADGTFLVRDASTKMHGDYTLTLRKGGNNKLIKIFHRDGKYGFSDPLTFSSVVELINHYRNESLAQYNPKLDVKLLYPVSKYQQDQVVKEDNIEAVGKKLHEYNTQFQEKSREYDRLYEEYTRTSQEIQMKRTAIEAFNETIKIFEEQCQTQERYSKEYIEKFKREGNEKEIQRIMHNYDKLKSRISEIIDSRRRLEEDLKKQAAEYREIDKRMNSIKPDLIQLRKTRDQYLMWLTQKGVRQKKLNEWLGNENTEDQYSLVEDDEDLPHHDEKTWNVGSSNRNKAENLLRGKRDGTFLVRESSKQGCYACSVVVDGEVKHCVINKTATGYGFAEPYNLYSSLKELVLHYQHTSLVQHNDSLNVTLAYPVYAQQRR
# TEST_SUMMARY: Example A3: PI3Kδ scintillation proximity assay
# TEST_CONTEXT: scintillation proximity assay, 20 μM ATP, 4 nM PI3Kδ; read-out: PI3Kδ SPA IC50
Counter-ions that a name gives are not always drawn.
Overview of reported IC50 across a group of compounds:

// worked examples, IC50 included
| COMPOUND | TARGET_OR_TEST_SYSTEM | IC50 |
| --- | --- | --- |
| CCNC(=O)c1c(C)c(Cl)cc(C(C)n2nc(-c3ccc4oc(N)nc4c3)c3c(N)ncnc32)c1OCC (racemic) [Example 89] | PI3Kδ (p110δ/p85α) (Homo sapiens (Human), UniProt O00329) | < 10 nM |
| CCOc1c(C(C)n2nc(C)c3c(N)ncnc32)cc(Cl)c(C)c1C1CN(C(C)C)C1 (centres unmarked) [Example 94, bis(trifluoroacetate)] | PI3Kδ (p110δ/p85α) (Homo sapiens (Human), UniProt O00329) | < 10 nM |
| CCOc1c(C(C)n2cc(C)c3c(N)ncnc32)cc(Cl)c(C#N)c1C1CN(CCO)C1 (centres unmarked) [Example 308] | PI3Kδ (p110δ/p85α) (Homo sapiens (Human), UniProt O00329) | < 10 nM |

Give IC50 only, for CNC(=O)N1CC(c2c(C#N)c(Cl)cc(C(C)n3nc(C)c4c(N)ncnc43)c2OC)C1 (single isomer, unassigned) [Example 294] , using PI3Kδ (p110δ/p85α) (Homo sapiens (Human), UniProt O00329) data.
< 10 nM

Give IC50 only, for COc1c(C(C)n2nc(C)c3c(N)ncnc32)cc(Cl)c(C)c1C1CN(C2CCOCC2)C1 (racemic) [Example 64] , using PI3Kδ (p110δ/p85α) (Homo sapiens (Human), UniProt O00329) data.
< 10 nM

Give IC50 only, for COc1c(C(C)n2nc(C(F)F)c3c(N)ncnc32)cc(C#N)c(C)c1C1CN(C(C)=O)C1 (racemic) [Example 138] , using PI3Kδ (p110δ/p85α) (Homo sapiens (Human), UniProt O00329) data.
< 10 nM

Give IC50 only, for CCOc1c(C(C)n2nc(C)c3c(N)ncnc32)cc(Cl)c(C#N)c1C1CN(C(=O)OC(C)C)C1 (single isomer, unassigned) [Example 254] , using PI3Kδ (p110δ/p85α) (Homo sapiens (Human), UniProt O00329) data.
< 10 nM

Give IC50 only, for COc1c(C(C)n2nc(C)c3c(N)ncnc32)cc(C)c(C#N)c1C1CN(C[C@H](C)O)C1 (single isomer, unassigned) [Example 315] , using PI3Kδ (p110δ/p85α) (Homo sapiens (Human), UniProt O00329) data.
< 10 nM

Give IC50 only, for CCOc1c(C(C)n2nc(C)c3c(N)ncnc32)cc(Cl)c(C#N)c1C1CN(S(=O)(=O)CC)C1 (single isomer, unassigned) [Example 249] , using PI3Kδ (p110δ/p85α) (Homo sapiens (Human), UniProt O00329) data.
< 10 nM

Give IC50 only, for COc1c(C(C)n2nc(C)c3c(N)ncnc32)cc(Cl)c(C)c1-c1cnn(CCN(C)C)c1 (single isomer, unassigned) [Example 183] , using PI3Kδ (p110δ/p85α) (Homo sapiens (Human), UniProt O00329) data.
< 10 nM

Give IC50 only, for CCOc1c(C(C)n2nc(C)c3c(N)ncnc32)cc(Cl)c(F)c1C1CN(C[C@H](C)O)C1 (some centres unmarked) [Example 143] , using PI3Kδ (p110δ/p85α) (Homo sapiens (Human), UniProt O00329) data.
< 10 nM

Give IC50 only, for COc1c(C(C)n2nc(C)c3c(N)ncnc32)cc(Cl)c(C)c1C1CN(C2COC2)C1 (racemic) [Example 63] , using PI3Kδ (p110δ/p85α) (Homo sapiens (Human), UniProt O00329) data.
< 10 nM

Give IC50 only, for COc1c(C(C)n2nc(C)c3c(N)ncnc32)cc(Cl)c(F)c1C1CN(C)C1 (centres unmarked) [Example 72] , using PI3Kδ (p110δ/p85α) (Homo sapiens (Human), UniProt O00329) data.
< 10 nM

Give IC50 only, for COc1c(C(C)n2nc(C)c3c(N)ncnc32)cc(Cl)c(C)c1C1CN(C(C)=O)C1 (centres unmarked) [Example 2, trifluoroacetate] , using PI3Kδ (p110δ/p85α) (Homo sapiens (Human), UniProt O00329) data.
< 10 nM

---

# TARGET_OR_TEST_SYSTEM: PI3K isoform δ (Homo sapiens (Human), UniProt O00329)
# TEST_SUMMARY: Example A2: PI3K enzyme assay ([γ-33P]ATP filter plate), PI3Kδ
# TEST_CONTEXT: as determined by Assay A2
# Method: PI3K isoforms α, β, δ and γ are purchased from Millipore (Bedford, Mass.). Inhibitors are first diluted serially in DMSO and added to the plate wells before the addition of other reaction components. The final concentration of DMSO in the assay is 0.5%. The PI3K assays are carried out at room temperature in 20 mM MOPS, pH 6.7, 10 mM MgCl2, 5 mM DTT and CHAPS 0.03%. […] After the plate sealing, the radioactivity of the product is determined by scintillation counting on Topcount (Perkin-Elmer). […]
pIC50: −log10 of the molar value.
PARAMETER: pIC50

Let me know recorded pIC50 for "COc1c([C@@H](C)n2nc(C)c3c(N)ncnc32)cc(Cl)c(C#N)c1C1CN(C[C@H](C)O)C1" , thanks.
< 6.30

---

# TARGET_OR_TEST_SYSTEM: PI3Kδ (p110δ/p85α) (Homo sapiens (Human))
# TEST_SUMMARY: Example A3: PI3Kδ scintillation proximity assay
# TEST_CONTEXT: scintillation proximity assay, 20 μM ATP, 4 nM PI3Kδ; read-out: PI3Kδ SPA IC50
pIC50: −log10 of the molar value.
PARAMETER: pIC50

// worked examples, pIC50 included
| COMPOUND | TARGET_OR_TEST_SYSTEM | pIC50 |
| --- | --- | --- |
| CCOc1c(C(C)n2nc(C)c3c(N)ncnc32)cc(Cl)c(C)c1C1CN(CC(C)(C)O)C1 (single isomer, unassigned) [Example 98] | PI3Kδ (p110δ/p85α) (Homo sapiens (Human)) | > 8.00 |
| COc1c(C(C)n2nc(C(F)F)c3c(N)ncnc32)cc(C#N)c(C)c1C1CN(C(C)C)C1 (racemic) [Example 128] | PI3Kδ (p110δ/p85α) (Homo sapiens (Human)) | > 8.00 |

Next:
Give pIC50 only, for COc1c(C(C)n2nc(C)c3c(N)ncnc32)cc(Cl)c(C)c1C1CN(CC#N)C1 (single isomer, unassigned) [Example 105] , using PI3Kδ (p110δ/p85α) (Homo sapiens (Human)) data.
> 8.00

---

# TARGET_OR_TEST_SYSTEM: PI3Kδ (p110δ/p85α) (Homo sapiens (Human), UniProt O00329)
# TEST_SUMMARY: Example A3: PI3Kδ scintillation proximity assay
# TEST_CONTEXT: scintillation proximity assay, 20 μM ATP, 4 nM PI3Kδ; read-out: PI3Kδ SPA IC50
PARAMETER: IC50

// worked examples, IC50 included
| COMPOUND | IC50 |
| --- | --- |
| CCOc1c(C(C)n2nc(C)c3c(N)ncnc32)cc(Cl)c(C)c1-c1ccnc(C(=O)N(C)C)c1 (single isomer, unassigned) | < 10 nM |
| CCNC(=O)c1c(C)c(Cl)cc(C(C)n2nc(-c3cnc4[nH]ccc4c3)c3c(N)ncnc32)c1OCC (racemic) | < 10 nM |
| CCOc1c(C(C)n2nc(C)c3c(N)ncnc32)cc(Cl)c(C#N)c1-c1cncc(-c2ncco2)c1 (racemic) | < 10 nM |
| COc1c(C(C)n2cc(C)c3c(N)ncnc32)cc(Cl)c(C)c1-c1ccc(C(=O)N(C)C)nc1 (racemic) | < 10 nM |

Let me know recorded IC50 for CCOc1c(C(C)n2nc(C(F)F)c3c(N)ncnc32)cc(Cl)c(F)c1C1CN(C[C@H](C)O)C1 (stereo partly shown) , thanks.
< 10 nM

Let me know recorded IC50 for COc1c(C(C)n2nc(C(F)F)c3c(N)ncnc32)cc(C#N)c(C)c1C1CN(CCO)C1 (racemic) , thanks.
< 10 nM

Let me know recorded IC50 for CCOc1c(C(C)n2nc(C(F)F)c3c(N)ncnc32)cc(Cl)c(C)c1-c1ccc(C(=O)N(C)C)nc1 (racemic) [Example 82, bis(trifluoroacetate)] , thanks.
< 10 nM

Let me know recorded IC50 for CCOc1c(C(C)n2nc(C)c3c(N)ncnc32)cc(Cl)c(C#N)c1C1CN(C2CCOC2)C1 (single isomer, unassigned) , thanks.
< 10 nM
